Listing of entries alongside the reported inhibition at 25 µM.
# tgt: GAβ-dependent amyloid fibril formation (Human Aβ1-40 + GM1-containing liposome) (Homo sapiens, UniProt P05067)
# Construct: Human Aβ1-40 (cat. #4307-v, prepared by Peptide Institute); purchased Peptide Institute 4307-v
# Sequence (P05067 672-711 limits assumed): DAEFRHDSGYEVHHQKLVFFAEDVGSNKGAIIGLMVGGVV
# experiment description: Thioflavin T (ThT) assay of GAβ-dependent amyloid fibril formation (Aβ1-40 with GM1-containing liposome)
# Assay type: biochemical
# condition summary: inhibition rate against amyloid fibril formation, final concentration of the compound 25 μM; read-out: Inhibitory activity ABC evaluation

compound="O=C(N[C@@H](CO)c1nc(-c2csc3ccccc23)no1)c1ccc(F)cc1 [Compound 230]" measured="40 to 80%"
compound="CCCN(Cc1cccc(Cl)c1)C(=O)CCc1nc(-c2ccc(OC)cc2)no1 [Compound 9]" measured="40 to 80%"

Query string: # query: inhibition at 25 µM of entry O=C(N[C@@H](CO)c1nc(-c2ccc(C(F)(F)F)cc2)no1)c1ccc(N2CCCC2)cc1 [Compound 203]
Result string: > 80%

Query string: What do you have for O=C(N[C@H](CO)c1nc(-c2ccc(OC(F)(F)F)cc2)no1)c1ccc(Cl)cc1 [Compound 83] ?
Result string: > 80%

Query string: Then O=C(N[C@@H](CO)c1nc(-c2ccc(C(F)(F)F)cn2)no1)c1ccc(F)cc1 [Compound 204] ?
Result string: 40 to 80%

Query string: Record: Cc1ccc(-c2noc([C@H](CO)NC(=O)c3ccccc3)n2)cc1 [Compound 143]
Result string: > 80%

###

Item-by-item account of inhibition at 25 µM
# tgt: GAβ-dependent amyloid fibril formation (Human Aβ1-40 + GM1-containing liposome) (Homo sapiens)
# Construct: Human Aβ1-40 (cat. #4307-v, prepared by Peptide Institute); purchased Peptide Institute 4307-v
# experiment description: Thioflavin T (ThT) assay of GAβ-dependent amyloid fibril formation (Aβ1-40 with GM1-containing liposome)
# Format: biochemical
# condition summary: @25 μM; read-out: ThT Inhibitory activity (% inhibition)
Give just the numeric value; % need not be written.

Below are worked cases with known answers.
compound="O=C(NC(CO)c1nc(-c2ccc(O)cc2)no1)c1ccc(Cl)cc1 (stereo not shown)" measured=89
compound="OC(Cc1c[nH]c2ccccc12)c1nc(-c2ccc(OC(F)(F)F)cc2)no1 (stereo not shown)" measured=87

Query string: Give its inhibition at 25 µM value. Item: Cl.O=C(N[C@@H](CO)c1nc(-c2ccc(C(F)(F)F)cn2)no1)c1ccc(F)cc1 [Compound 206, hydrochloride]
Result string: 55

Query string: Can you handle O=C1CC(CO)(c2nc(-c3ccc(O)cc3)no2)CN1c1ccc(Cl)cc1 (stereo not shown) next?
Result string: 81

###

# tgt: GAβ-dependent amyloid fibril formation (Human Aβ1-40 + GM1-containing liposome) (Homo sapiens, UniProt P05067)
# Construct: Human Aβ1-40 (cat. #4307-v, prepared by Peptide Institute); purchased Peptide Institute 4307-v
# experiment description: Thioflavin T (ThT) assay of GAβ-dependent amyloid fibril formation (Aβ1-40 with GM1-containing liposome)
# Assay type: biochemical
# condition summary: @25 μM; read-out: ThT Inhibitory activity (% inhibition)
The reader will find reported inhibition at 25 µM values listed item by item below.
Numbers only here, please. The scale is %.

compound="O=C(NC(CO)c1nc(-c2ccc(C(F)(F)F)cc2)no1)c1cc2ccccc2[nH]1 (stereo not shown)" test_readout="inhibition at 25 µM" measured=64

Query string: Query (compound): O=C(N[C@@H](CO)c1nc(-c2ccc(C(F)(F)F)cc2)no1)c1ccc(Cl)cn1 ; field requested: inhibition at 25 µM
Result string: 64

Query string: How about this compound: O=C(N[C@@H](CO)c1nc(-c2ccc(C(F)(F)F)cc2)no1)c1ccc(Cl)cc1
Result string: 86

Query string: Query O=C(N[C@@H](CO)c1nc(-c2ccc(C(F)(F)F)cc2)no1)c1c(F)cccc1F next
Result string: 70

Query string: Note, next up: O=C(/C=C/c1cc(Cl)cc(Cl)c1)NC(CO)c1nc(-c2ccc(C(F)(F)F)cc2)no1 (stereo not shown)
Result string: 73

Query string: Next up: O=C(N[C@@H](CO)c1nc(-c2ccc(O)cc2)no1)c1ccccc1
Result string: 87

Query string: Moving on to COc1ccc2nc(-c3noc([C@H](CO)NC(=O)c4ccc(F)cc4)n3)sc2c1
Result string: 63
